Where do the numbers come from? From patent US9988416B2.

tested on: HRV39; assay: HRV cytopathic effect (CPE) assay; assay type: cell-based; conditions: Human rhinovirus sp., H1-HeLa cells, 72 h at 33° C., CellTiter-Glo, read-out: Activity on HRV strains and other viruses: HRV39
endpoint: EC50 (nM)
Field: numeric (nM). Do not append units.

Ask | Given CC#C[C@]1(O)[C@H](n2ccc3c(N)ncnc32)O[C@](F)(COP(=O)(OCOC(=O)OC(C)C)OCOC(=O)OC(C)C)[C@H]1O [Example 2] , state its recorded EC50.
Reply | 600

----------
tested on: HRV86; assay: HRV cytopathic effect (CPE) assay; type: cell-based; settings: Human rhinovirus sp., H1-HeLa cells, 72 h at 33° C., CellTiter-Glo, read-out: Activity on HRV strains and other viruses: HRV86
endpoint: EC50 (µM)
Please state the figure in µM; there is no need to write the unit.

Ask | Need EC50, item CC#C[C@]1(O)[C@H](n2ccc3c(N)ncnc32)O[C@](F)(COP(=O)(OCOC(=O)OC(C)C)OCOC(=O)OC(C)C)[C@H]1O
Reply | 0.4
